# TARGET_OF_ASSAY: UniProtKB Q12809
# Sequence (Q12809 whole entry): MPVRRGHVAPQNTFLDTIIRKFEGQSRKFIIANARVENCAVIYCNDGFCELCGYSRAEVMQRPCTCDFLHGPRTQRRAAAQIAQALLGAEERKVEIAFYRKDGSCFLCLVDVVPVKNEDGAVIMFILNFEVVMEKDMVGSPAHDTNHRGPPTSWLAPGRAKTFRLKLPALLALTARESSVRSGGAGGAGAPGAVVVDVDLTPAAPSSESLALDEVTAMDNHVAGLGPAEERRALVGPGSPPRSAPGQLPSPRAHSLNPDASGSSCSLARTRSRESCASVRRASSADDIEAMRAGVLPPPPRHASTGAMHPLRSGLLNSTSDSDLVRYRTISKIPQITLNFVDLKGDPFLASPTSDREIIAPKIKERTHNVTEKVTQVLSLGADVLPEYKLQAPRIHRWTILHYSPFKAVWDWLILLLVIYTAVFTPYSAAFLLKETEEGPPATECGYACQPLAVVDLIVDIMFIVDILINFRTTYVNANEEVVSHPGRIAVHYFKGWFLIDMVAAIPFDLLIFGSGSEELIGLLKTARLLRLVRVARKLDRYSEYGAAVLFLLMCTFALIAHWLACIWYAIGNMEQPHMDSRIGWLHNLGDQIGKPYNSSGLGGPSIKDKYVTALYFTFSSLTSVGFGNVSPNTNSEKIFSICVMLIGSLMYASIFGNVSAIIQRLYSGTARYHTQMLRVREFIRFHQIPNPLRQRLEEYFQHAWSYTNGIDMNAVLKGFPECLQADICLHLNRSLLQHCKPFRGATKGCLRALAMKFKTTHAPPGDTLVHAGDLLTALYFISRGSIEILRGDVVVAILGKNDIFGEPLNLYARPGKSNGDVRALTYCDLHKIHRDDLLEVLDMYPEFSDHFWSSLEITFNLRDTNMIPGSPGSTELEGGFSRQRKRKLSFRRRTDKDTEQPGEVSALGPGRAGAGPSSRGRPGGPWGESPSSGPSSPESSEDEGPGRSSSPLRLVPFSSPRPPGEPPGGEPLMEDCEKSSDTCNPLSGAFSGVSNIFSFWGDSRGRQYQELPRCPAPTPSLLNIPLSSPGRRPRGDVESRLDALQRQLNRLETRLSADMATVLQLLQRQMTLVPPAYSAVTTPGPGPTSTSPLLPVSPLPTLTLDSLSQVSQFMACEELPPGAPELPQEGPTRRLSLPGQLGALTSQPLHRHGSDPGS
# EXPERIMENTAL_PROTOCOL: hERG channel inhibition, whole cell patch clamp in HEK293 cells
# CONDITION: inhibition at 10 μM
Rule: hERG @ 10 μM of 60% or more gives Yes; anything lower gives No.

Study these solved cases before continuing.
COMPOUND: Cc1ccc(CCN2CCC(Nc3ncnc4[nH]ncc34)C(F)(F)C2)cn1 (racemic) [C-3.4]
CLASS_NAME: No

COMPOUND: Fc1cc(Cl)ccc1CCN1CCC(Nc2ncnc3[nH]ncc23)C(F)(F)C1 (single isomer, unassigned) [E1-1.16]
CLASS_NAME: No

Say whether Fc1ccc(F)c(CCN2CCC(Nc3ncnc4[nH]ncc34)C(F)(F)C2)c1 (racemic) [C-1.35] shows hERG @ 10 μM of 60% or more.
No

Note, next up: Cc1n[nH]c2ncnc(NC3CCN(CCc4ccc(C(F)(F)F)cc4)CC3(F)F)c12 (racemic) [C-1.34]
Yes

Could you do the same for FC(F)(F)c1ccc(CCN2CCC(Nc3ncnc4[nH]ccc34)C(F)(F)C2)cn1 (racemic) [C-4.5] , please?
No

Then FC(F)(F)c1ccc(CCN2CCC(Nc3ncnc4[nH]ncc34)C(F)(F)C2)cn1 (racemic) [C-3.5] ?
No

Item: Fc1cc(Cl)ccc1CCN1CCC(Nc2ncnc3[nH]ncc23)C(F)(F)C1 (single isomer, unassigned) [E2-1.16]
Yes
